src = ChEMBL document CHEMBL4190379

Each record here notes measured CL free.
# TEST_DESCRIPTION: Intrinsic unbound clearance in human liver microsomes
# Type: ADME, microsome

SMILES_DATA: Cn1cc2c3c(c[nH]c(=O)c31)CN(CC1CC1)c1ccc(CS(C)(=O)=O)cc1-2
RESULT: < 45 mL/min/kg

Enquiry: Which CL free value belongs to Cn1cc2c3c(c[nH]c(=O)c31)-c1cc(CS(C)(=O)=O)ccc1N(c1ccccn1)C2 ?
Return: 65 mL/min/kg

Enquiry: Name the recorded CL free for Cn1cc2c3c(c[nH]c3c1=O)CN(C1CCC(F)(F)CC1)c1ccc(CS(C)(=O)=O)cc1-2 .
Return: 67 mL/min/kg

* * *

# System: Mus musculus
# TEST_DESCRIPTION: Unbound clearance in mouse at 10 mg/kg, po
# Format: ADME, organism-based
# TEST_SETTINGS: in vivo
MEASUREMENT_TYPE: CL free (mL/min/kg)
The reply should contain only the number, in mL/min/kg.

SMILES_DATA: Cn1cc2c3c(c[nH]c3c1=O)CN(c1ccc(F)cc1F)c1ccc(CS(C)(=O)=O)cc1-2
CL free, mL/min/kg: 750

Enquiry: So what does the record say about CL free for Cn1cc2c3c(c[nH]c3c1=O)CN(c1ccc(F)cc1)c1ccc(CS(C)(=O)=O)cc1-2 ?
Return: 5170

Enquiry: GET /values?readout=CL free&item= Cn1cc2c3c(c[nH]c(=O)c31)-c1cc(CS(C)(=O)=O)ccc1N(c1ccc(F)cc1)C2
Return: 1300

Enquiry: Requested field: CL free. Item: Cn1cc2c3c(c[nH]c(=O)c31)CN(CC1CC1)c1ccc(CS(C)(=O)=O)cc1-2
Return: 733

Enquiry: CL free lookup needed for Cn1cc2c3c(c[nH]c3c1=O)CN(CC1CC1)c1ccc(CS(C)(=O)=O)cc1-2 , thanks.
Return: 450

Enquiry: Name the recorded CL free for Cn1cc2c3c(c[nH]c3c1=O)CN(c1ccccn1)c1ccc(CS(C)(=O)=O)cc1-2 .
Return: 157

Enquiry: Param item = Cn1cc2c3c(c[nH]c3c1=O)CN(C1CCC(F)(F)CC1)c1ccc(CS(C)(=O)=O)cc1-2 ; retrieve measured CL free.
Return: 4830

* * *

Each entry below carries its reported pKi.
# TESTED_SYSTEM: Bromodomain-containing protein 4 (Homo sapiens)
# TEST_DESCRIPTION: Binding affinity to His-tagged BRD4 bromodomain 1 to 2 (K57 to K550 amino acids) (unknown origin) using Alexa647-labeled BET-inhibitor as fluorescent probe by bromodomain TR-FRET binding assay
# Format: single protein
pKi (log units): -log10 of the concentration in mol/L.

SMILES_DATA: Cn1cc2c3c(c[nH]c3c1=O)CN(c1ccccn1)c1ccc(CS(C)(=O)=O)cc1-2
TESTED_SYSTEM: Bromodomain-containing protein 4 (Homo sapiens)
pKi: 9.21

Enquiry: Returns the measured pKi for the input molecule. Input: Cn1cc(-c2ccccc2NCC2CC2)c2cc[nH]c(=O)c21
Return: 5.82

Enquiry: Any idea what pKi was measured for Cn1cc2c3c(c[nH]c(=O)c31)-c1cc(CS(C)(=O)=O)ccc1N(c1ccc(F)cc1F)C2 ?
Return: 8.57

Enquiry: Consider the molecule CCS(=O)(=O)Nc1cnc2c(c1)-c1cn(C)c(=O)c3[nH]cc(c13)CN2c1ccc(F)cc1F and give its measured pKi.
Return: 8.39

Enquiry: // returns reported pKi for input Cn1cc2c3c(c[nH]c(=O)c31)-c1cc(CS(C)(=O)=O)ccc1N(C(=O)C1CC1)C2
Return: 8.11

Enquiry: Data request, read-out pKi, for CCC(=O)N1Cc2c[nH]c3c(=O)n(C)cc(c23)-c2cc(CS(C)(=O)=O)ccc21
Return: 8.14

* * *

# TEST_DESCRIPTION: Oral bioavailability in mouse at 10 mg/kg
# Assay type: ADME, organism-based
# TEST_SETTINGS: in vivo
MEASUREMENT_TYPE: bioavailability (%)
A number alone suffices; assume %.

Would you please look over these solved cases?
SMILES_DATA: Cn1cc2c3c(c[nH]c3c1=O)CN(c1ccc(F)cc1)c1ccc(CS(C)(=O)=O)cc1-2
QUANTITATIVE_RESULT: 23
//
SMILES_DATA: Cn1cc2c3c(c[nH]c3c1=O)CN(C1CCC(F)(F)CC1)c1ccc(CS(C)(=O)=O)cc1-2
QUANTITATIVE_RESULT: 48
//
SMILES_DATA: Cn1cc2c3c(c[nH]c3c1=O)CN(c1ccc(F)cc1F)c1ccc(CS(C)(=O)=O)cc1-2
QUANTITATIVE_RESULT: 93

Enquiry: Look at this compound and give its reported bioavailability. Cn1cc2c3c(c[nH]c3c1=O)CN(CC1CC1)c1ccc(CS(C)(=O)=O)cc1-2
Return: 8.2

Enquiry: Using the record for Cn1cc2c3c(c[nH]c(=O)c31)CN(CC1CC1)c1ccc(CS(C)(=O)=O)cc1-2 , report its bioavailability.
Return: 23

Enquiry: Entry under review: Cn1cc2c3c(c[nH]c(=O)c31)-c1cc(CS(C)(=O)=O)ccc1N(c1ccc(F)cc1)C2 . Reported bioavailability?
Return: 34

Enquiry: # input compound: Cn1cc2c3c(c[nH]c3c1=O)CN(c1ccccn1)c1ccc(CS(C)(=O)=O)cc1-2 ; wanted: its bioavailability
Return: 32

* * *

# TEST_DESCRIPTION: Permeability of the compound by PAMPA method
# Type: ADME
# TEST_SETTINGS: read-out: permeability
MEASUREMENT_TYPE: Papp (×10⁻⁶ cm/s)
Entry rule: numbers only, all in ×10⁻⁶ cm/s.

Recorded results for 2 compounds are shown here.
SMILES_DATA: Cn1cc2c3c(c[nH]c3c1=O)CN(C1CCC(F)(F)CC1)c1ccc(CS(C)(=O)=O)cc1-2
Papp (×10⁻⁶ cm/s): 7.3
--
SMILES_DATA: Cn1cc2c3c(c[nH]c(=O)c31)CN(CC1CC1)c1ccc(CS(C)(=O)=O)cc1-2
Papp (×10⁻⁶ cm/s): 2.5

Enquiry: I am curious: what Papp value has been reported for Cn1cc2c3c(c[nH]c3c1=O)CN(CC1CC1)c1ccc(CS(C)(=O)=O)cc1-2 ?
Return: 4.3

Enquiry: Any idea what its Papp is? The compound is Cn1cc2c3c(c[nH]c3c1=O)CN(c1ccccn1)c1ccc(CS(C)(=O)=O)cc1-2
Return: 6

Enquiry: Any idea what Papp was measured for Cn1cc2c3c(c[nH]c(=O)c31)-c1cc(CS(C)(=O)=O)ccc1N(c1ccccn1)C2 ?
Return: 5.9

Enquiry: Look at this compound and give its reported Papp. Cn1cc2c3c(c[nH]c3c1=O)CN(c1ccc(F)cc1)c1ccc(CS(C)(=O)=O)cc1-2
Return: 6.6

Enquiry: So what's the measured Papp for this one? Cn1cc2c3c(c[nH]c3c1=O)CN(c1ccc(F)cc1F)c1ccc(CS(C)(=O)=O)cc1-2
Return: 13

Enquiry: Which Papp reading was recorded for the compound Cn1cc2c3c(c[nH]c(=O)c31)-c1cc(CS(C)(=O)=O)ccc1N(c1ccc(F)cc1)C2 ?
Return: 5.1

* * *

Reported EC50 is given for each of the following compounds.
# System: MX1
# TEST_DESCRIPTION: Antiproliferative activity against human MX1 cells incubated for 72 hrs by cell-titer Glo assay
# Format: functional, cell-based
# TEST_SETTINGS: MX1, 72 h
Number only, in nM; omit the unit.

Enquiry: Tell me the measured EC50 of Cn1cc2c3c(c[nH]c3c1=O)CN(c1ccc(F)cc1)c1ccc(CS(C)(=O)=O)cc1-2 , please.
Return: 0.72

* * *

# TESTED_SYSTEM: Bromodomain-containing protein 4 (Homo sapiens)
# TEST_DESCRIPTION: Binding affinity to BRD4 in human H1299 cells stably expressing E2 and HPV16-LCR luciferase reporter incubated for 24 hrs by Bright-Glo luciferase reporter gene assay based BRD4 engagement assay
MEASUREMENT_TYPE: pIC50
For clarity, pIC50 is expressed as the negative log10 of concentration in mol/L.

SMILES_DATA: Cn1cc2c3c(c[nH]c3c1=O)CN(C1CCC(F)(F)CC1)c1ccc(CS(C)(=O)=O)cc1-2
TESTED_SYSTEM: Bromodomain-containing protein 4 (Homo sapiens)
pIC50: 8.43

Enquiry: Lookup: pIC50 / Bromodomain-containing protein 4 (Homo sapiens) / Cn1cc2c3c(c[nH]c3c1=O)CN(CC1CC1)c1ccc(S(C)(=O)=O)cc1-2
Return: 7.55

Enquiry: Request body: readout pIC50, system Bromodomain-containing protein 4 (Homo sapiens), query Cn1cc2c3c(c[nH]c(=O)c31)CN(CC1CC1)c1ccc(S(C)(=O)=O)cc1-2 . Return the value.
Return: 6.72

Enquiry: Observed pIC50 on Bromodomain-containing protein 4 (Homo sapiens) for Cn1cc(-c2cc(CS(C)(=O)=O)ccc2NCC2CC2)c2cc[nH]c(=O)c21 , please.
Return: 6.70
